Origin of values: patent US10752616B2

Molecular target: RARα (Mus musculus (Mouse))
Sequence (P11416 183-417): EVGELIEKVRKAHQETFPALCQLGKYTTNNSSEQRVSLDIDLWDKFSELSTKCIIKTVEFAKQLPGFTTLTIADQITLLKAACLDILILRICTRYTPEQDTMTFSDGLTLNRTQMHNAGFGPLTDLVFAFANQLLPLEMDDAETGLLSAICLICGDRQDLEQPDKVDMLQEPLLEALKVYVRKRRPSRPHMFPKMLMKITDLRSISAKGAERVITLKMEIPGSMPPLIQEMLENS
Assay: Transactivation assay for RARα (gal4-RAR fusion, pFR-luc reporter, COS-7 cells), Table 2
Settings: Table 2; COS-7 reporter; mean of three or more determinations; inactive = no agonist action at highest concentration tested
ENDPOINT: EC50

State the recorded EC50 for this entry: Cc1ccc(C)c2sc(-c3nc(-c4ccc(C(=O)O)cc4)no3)cc12 [BHBA-021]
30 nM

Requested read-out: EC50. Entry: Cc1ccc(C)c2oc(-c3nsc(-c4ccc(C(=O)O)cc4)n3)cc12 [BHBA-042]
9.4 nM

Given Cc1ccc(C)c2oc(-c3nc(-c4ccc(C(=O)O)c(F)c4)ns3)cc12 [BHBA-041] , state its recorded EC50.
20 nM
